All values here come from paper PMC6274350.

Each item that follows carries a reported viability at 24 h, 1 µM.
# experimental_details: CellTiter-Glo luminescent cell viability (cytotoxicity) assay on hepatocytes
# Format: cell-based, human
# applied_conditions: human; Liver cells, hepatocytes (HepaRG); 1 µM; 24 h; vs DMSO vehicle

O=[N+]([O-])c1cc(F)c(N2CCN(c3ccccc3O)CC2)cc1O; 104%
Cc1ccc(N2CCN(c3cc4oc(C)nc4cc3F)CC2)cc1; 99%
O=[N+]([O-])c1cc(F)c(N2CCN(c3ccc(Cl)c(Cl)c3)CC2)cc1O; 115%
O=[N+]([O-])c1cc(F)c(N2CCN(c3cccc(O)c3)CC2)cc1O; 109%

Then this compound:
In plain terms, "Cc1nc2cc(F)c(N3CCN(c4ccc(F)cc4)CC3)cc2o1" has a documented viability at 24 h, 1 µM of 94%

====

# System: A-549 lung carcinoma cells
# experimental_details: CellTiter-Glo luminescent cell viability (cytotoxicity) assay on lung cancer cells
# Format: cell-based, human
# applied_conditions: Homo sapiens, A549; Lung cancer cells (A-549); 10 µM; 24 h; vs DMSO vehicle
# Protocol: The cytotoxicity of prepared benzoxazoles (7a–j) and intermediates (6a–j and 9) were measured by applying the CellTiter-Glo® luminescent cell proliferation assay (G755A, Promega, Madison, WI, USA). This method permits the determination of viable cells numbers in the culture based on quantitation of the ATP present, which denotes the presence of metabolically active cells. […]
attribute_measured: viability at 10 µM (%)
Give just the number in %; leave the unit off.

Use the examples below as a reference point.
Cc1nc2cc(F)c(N3CCN(c4cccc(O)c4)CC3)cc2o1 [Compound 7h]; 97
O=[N+]([O-])c1cc(F)c(N2CCN(c3ccc(Cl)c(Cl)c3)CC2)cc1O [Compound 6j]; 65
Cc1ccc(N2CCN(c3cc(O)c([N+](=O)[O-])cc3F)CC2)cc1 [Compound 6b]; 68
Cc1nc2cc(F)c(N3CCN(c4ccc(O)cc4)CC3)cc2o1 [Compound 7c]; 101
O=[N+]([O-])c1cc(F)c(N2CCN(c3cccc(O)c3)CC2)cc1O [Compound 6h]; 105
O=[N+]([O-])c1cc(F)c(N2CCN(c3ccc(F)cc3)CC2)cc1O [Compound 6d]; 78
Cc1nc2cc(F)c(N3CCN(c4ccccc4O)CC3)cc2o1 [Compound 7f]; 91
O=[N+]([O-])c1cc(F)c(N2CCN(c3ccccc3F)CC2)cc1O [Compound 6g]; 62

Bench note, A-549 lung carcinoma cells: entry COc1cccc(N2CCN(c3cc(O)c([N+](=O)[O-])cc3F)CC2)c1 [Compound 6i] , its viability at 10 µM = 96

====

# experimental_details: CellTiter-Glo luminescent cell viability (cytotoxicity) assay on hepatocytes
# Format: cell-based, human
# applied_conditions: human; Liver cells, hepatocytes (HepaRG); 10 µM; 24 h; vs DMSO vehicle
Each item that follows carries a reported viability at 24 h, 10 µM.
Note to self: number, then unit, no commentary.

O=[N+]([O-])c1cc(F)c(N2CCN(c3ccc(F)cc3)CC2)cc1O; 101%

In plain terms, "O=[N+]([O-])c1cc(F)c(N2CCN(c3cccc(O)c3)CC2)cc1O" has a documented viability at 24 h, 10 µM of 108%

In plain terms, "O=[N+]([O-])c1cc(F)c(N2CCN(c3ccc(Cl)c(Cl)c3)CC2)cc1O" has a documented viability at 24 h, 10 µM of 81%

In plain terms, "Cc1nc2cc(F)c(N3CCN(c4ccccc4F)CC3)cc2o1" has a documented viability at 24 h, 10 µM of 87%

In plain terms, "Cc1nc2cc(F)c(N3CCN(c4ccc(O)cc4)CC3)cc2o1" has a documented viability at 24 h, 10 µM of 101%

In plain terms, "Cc1nc2cc(F)c(N3CCN(c4ccccc4)CC3)cc2o1" has a documented viability at 24 h, 10 µM of 94%
